So I've got a bunch of compounds here, and I need their TGI values.
- Test system: SF-539 CNS
- Experiment Notes: NCI tumour cell line growth inhibition, 48 h

Entry C[C@H](CCC(=O)NN)[C@H]1CC[C@H]2[C@@H]3CC[C@@H]4C[C@H](O)CC[C@]4(C)[C@H]3CC[C@]12C ; TGI = > 100 µM

The compound listed as COc1ccc(C2=C(c3cn(C)c4ccccc34)C(=O)NC2=O)cc1 shows TGI equal to > 25 µM

Lookup result for CCCCCC(/C=N/Nc1ccccc1)C(O)(C(F)(F)F)C(F)(F)F (stereo not given) ; measured TGI: > 100 µM

Form field TGI, entry NC(N)=NS(=O)(=O)c1ccc(NC(=O)c2cccc3c(NNc4ccc(C(=O)O)cc4)c4ccccc4nc23)cc1 : > 100 µM

Recorded result, CCN(CC)CCCNc1nc2ccccc2[n+]([O-])n1 , TGI: > 100 µM

###

- Test system: K-562 leukemia
- Experiment Notes: NCI tumour cell line growth inhibition, 48 h; in the data active = GI50 below about 0.43 µM; inactive = the rest
A correct response names exactly one class from active, inactive

Tell me the assay call for CCN(CC)c1ccc(N=O)cc1 please.
inactive

// return assay outcome for COc1cc(/C=C2\CC3C4CCC5=CC(=O)CC[C@]5(C)C4CC[C@]3(C)C2=O)ccc1OCCCn1ccnc1 (some centres undefined)
inactive

Please share the test call associated with O=C(OC(CNc1c(C(=O)c2ccccc2)c(=O)n(Cc2ccccc2)c(=O)n1Cc1ccccc1)CN1CCOCC1)c1ccccc1 (centres undefined) .
inactive

Returns: the outcome recorded for O=c1c2cc(I)ccc2nc(-c2cccs2)n1-c1ccc(S(=O)(=O)Nc2nccs2)cc1 in this assay.
inactive

Dear all, I need the recorded test outcome for COC1C(CO)OC(n2c3ccccc3c3c4c(c5c6ccccc6[nH]c5c32)C(=O)NC4=O)C(OC(=O)C(N)CCCCN)C1O (centres undefined) , thank you.
active

Just curious, what result did Cc1c(NC(=O)c2cc(C(N)=O)nc3cc(F)ccc23)c(C(F)(F)F)nn1Cc1ccc(C#N)cc1 get here?
inactive

What is the recorded call for this compound in the test? O=C([O-])c1ccc2c(c1)-c1nc-2nc2[n-]c(nc3nc(nc4[n-]c(n1)c1ccc(C(=O)[O-])cc41)-c1ccc(C(=O)[O-])cc1-3)c1ccc(C(=O)[O-])cc21.[Gd+3].[K+]
inactive

Please indicate how the test categorized CCOC(=O)c1cc(NC(=O)c2cc(NC(=O)c3cc(NC(=O)c4c(-c5ccccc5)noc4C)cn3C)cn2C)cn1C .
inactive

Hi team, can someone confirm the assay call for Cn1nc(-c2cccs2)cc1/N=C(\N)C(C)(C#N)Cc1ccccc1 (centres undefined) ?
inactive

###

- Tested on: IGROV1 ovarian
- Experiment Notes: NCI tumour cell line growth inhibition, 48 h
Experimental Endpoint: TGI

Record CN1C(NN)=NS(=O)(=O)c2ccccc21 , field TGI: > 100 µM

Value of measured TGI for the entry O=C1Nc2c(Cl)cc(Cl)cc2/C1=N/N=C/c1ccccc1O : 85.8 µM

// TGI value for O=C1CNc2cc(N3CCN(c4ccccc4)CC3)ccc2N1 : > 100 µM

Record summary for CN(O)C(=O)c1ccccc1 : reported TGI = > 100 µM

Short answer for Cc1ccc(N(C)S(=O)(=O)c2ccc([N+](=O)[O-])cc2)cc1 : TGI was > 100 µM

Lab book: TGI of COC(=O)C1=C(C)NC(C)=C(C(=O)OC)C1c1ccc(NO)cc1 noted as 30.9 µM

###

- System: SNB-75 CNS
- Experiment Notes: NCI tumour cell line growth inhibition, 48 h; in the data active = GI50 below about 0.43 µM; inactive = the rest
Respond only with the outcome that fits, drawn from active, inactive

What classification did Cn1cc(C2=C(Sc3ccccc3)C(=O)NC2=O)c2ccccc21 end up with in this test?
inactive

Identify the outcome logged in this assay for the molecule shown: COc1cc(Nc2cc(C)nc(N3CCN(c4ccnc5cc(Cl)ccc45)CC3)n2)cc(OC)c1
active

Could you check what this test reported for COc1cc2c(cc1O)N=C[C@@H]1C[C@@H](F)CN1C2=O ?
inactive

What did this assay record as the result for Ic1ccc2[nH]cc(SSc3c[nH]c4ccc(I)cc34)c2c1 ?
inactive

# outcome recorded in this test, key = O=C([O-])c1ccc2c(c1)-c1nc-2nc2[n-]c(nc3nc(nc4[n-]c(n1)c1ccc(C(=O)[O-])cc41)-c1ccc(C(=O)[O-])cc1-3)c1ccc(C(=O)[O-])cc21.[Gd+3].[K+]
inactive

Assay outcome for CC[C@]12C=CCN3CC[C@]4(C(=C(C(=O)OC)C1)Nc1cc(OC)c(OC(C)=O)cc14)[C@@H]32 : what was it?
active

// outcome(item) with item = COC1C(CO)OC(n2c3ccccc3c3c4c(c5c6ccccc6[nH]c5c32)C(=O)NC4=O)C(OC(=O)C(N)CCCCN)C1O (centres undefined)
active

Can you look up the reported call for COc1cc(OC)cc(Oc2nc3cc(N)cc(N)c3nc2-c2ccccc2)c1 for me?
active

# fetch the recorded call for CCCCCCCCCCCCC[N+](C)(C)Cc1ccccc1 here
inactive

###

- Tested on: OVCAR-8 ovarian
- Experiment Notes: NCI tumour cell line growth inhibition, 48 h
Answer each item with its documented TGI.

Lookup result for COc1ccc(/C=C/C(=O)C(C)C)cc1 ; measured TGI: > 100 µM

Lab note: COc1cc(/C=C2\CC3C4CCC5=CC(=O)CC[C@]5(C)C4CC[C@]3(C)C2=O)ccc1OCCCn1ccnc1 (stereo not given in full) gave TGI of 22.1 µM

Entry Cc1c(NC(=O)c2cc(C(N)=O)nc3cc(F)ccc23)c(C(F)(F)F)nn1Cc1ccc(C#N)cc1 , TGI reported as > 100 µM

Query O=C1c2ccccc2-c2c1c1ccccc1c(=O)n2-c1cccnc1 yields TGI of > 100 µM

Per the record, N#CCCC1(CCC#N)CCc2ccccc2C1=O has TGI of > 100 µM

###

- Tested on: K-562 leukemia
- Experiment Notes: NCI tumour cell line growth inhibition, 48 h
Experimental Endpoint: TGI

The value of TGI measured for the molecule COC(O)C12OC3CO[Si](C(C)C)(C(C)C)O[Si](C(C)C)(C(C)C)OC3C1Oc1nc(=O)ccn12 (stereo not given) turned out to be 64.9 µM

Documented TGI of COc1cc2c[n+]3ccc4cc(OC)c(OC)cc4c3cc2cc1O : > 100 µM

Just so you know, measured TGI for O=C(Cc1csc2nc(-c3ccc(Br)cc3)cn12)N/N=C/c1cc(Br)ccc1O came out at 13.9 µM

response.value for N#CCCC1(CCC#N)CCc2ccccc2C1=O (field: TGI) = > 100 µM

// CC(NC(=O)C(C)C(=O)Nc1ccc(C(F)(F)F)cc1)C(N)=O (stereo not given) : TGI value = > 100 µM

Summary for this molecule, COc1cc(/C=N/NC(=O)c2ccc(NC(C)=O)cc2OC)ccc1O : TGI is > 100 µM

// TGI lookup, molecule = Nc1nc[n+](Cc2ccccc2CCO)c2nc[nH]c12 , result: > 100 µM

The molecule listed as COc1ccc(-c2cc(=O)c3c(O)c(OC)c(O)c(OC)c3o2)cc1OC shows TGI equal to > 100 µM

Reported TGI ( O=C1/C(=C/c2ccc3c(c2)CCC3)Cc2cc3c(cc21)CCC3 ) = > 100 µM

Notebook: O=[N+]([O-])c1ccc(N=Nc2c(O)ccc3cc(S(=O)(=O)O)cc(S(=O)(=O)O)c23)cc1 , TGI read as > 100 µM

Kindly note the recorded TGI for O=c1nc2sc3ccc4ccccc4c3n2nc1-c1ccccc1 , which is > 100 µM

Reported TGI ( Cc1c(NC(=O)c2cc(C(N)=O)nc3cc(F)ccc23)c(C(F)(F)F)nn1Cc1ccc(C#N)cc1 ) = > 100 µM

Lab note: COc1ccc2c(c1)O[C@@H]1c3ccc(OC)cc3OC[C@H]21 gave TGI of 57.3 µM

Entry C=C(C)[C@@H]1CC[C@]2(CNCCO)CC[C@]3(C)[C@H](CC[C@@H]4[C@@]5(C)CCC(N)[C@@](C)(CO)[C@@H]5CC[C@]43C)[C@@H]12 (stereo not given in full) — recorded TGI = 3.7 µM

What the record says about CCCCCC(/C=N/Nc1ccccc1)C(O)(C(F)(F)F)C(F)(F)F (stereo not given) : TGI is > 100 µM

CNC(=O)CCC(NC(=O)OC(C)(C)C)C(=O)NC(Cc1ccc(NC(=O)CCCCC(C)=O)cc1)C(=O)NCC(=O)NC (stereo not given) yielded TGI of > 100 µM

# TGI (molecule: COc1cc2c3c(n(CCCN=[N+]=[N-])c(=O)c2cc1OC)-c1ccc(C#N)cc1C3=O ) is > 100 µM

Lab note: measured TGI of CC1=NC(C(=O)O)Cc2c1[nH]c1ccccc21 (stereo not given) was > 100 µM

TGI for O=c1c2cc(I)ccc2nc(-c2cccs2)n1-c1ccc(S(=O)(=O)Nc2nccs2)cc1 is > 100 µM

Just so you know, measured TGI for CC(=O)OCC1CCC(=C2C(=O)OC(C)(C)OC2=O)N1 (stereo not given) came out at > 100 µM

Cited source: PubChem BioAssay (NCI)
